Numbers sourced from the supplement of paper PMC3334620.

target under test: Yer184c (UniProt P39961)
Sequence: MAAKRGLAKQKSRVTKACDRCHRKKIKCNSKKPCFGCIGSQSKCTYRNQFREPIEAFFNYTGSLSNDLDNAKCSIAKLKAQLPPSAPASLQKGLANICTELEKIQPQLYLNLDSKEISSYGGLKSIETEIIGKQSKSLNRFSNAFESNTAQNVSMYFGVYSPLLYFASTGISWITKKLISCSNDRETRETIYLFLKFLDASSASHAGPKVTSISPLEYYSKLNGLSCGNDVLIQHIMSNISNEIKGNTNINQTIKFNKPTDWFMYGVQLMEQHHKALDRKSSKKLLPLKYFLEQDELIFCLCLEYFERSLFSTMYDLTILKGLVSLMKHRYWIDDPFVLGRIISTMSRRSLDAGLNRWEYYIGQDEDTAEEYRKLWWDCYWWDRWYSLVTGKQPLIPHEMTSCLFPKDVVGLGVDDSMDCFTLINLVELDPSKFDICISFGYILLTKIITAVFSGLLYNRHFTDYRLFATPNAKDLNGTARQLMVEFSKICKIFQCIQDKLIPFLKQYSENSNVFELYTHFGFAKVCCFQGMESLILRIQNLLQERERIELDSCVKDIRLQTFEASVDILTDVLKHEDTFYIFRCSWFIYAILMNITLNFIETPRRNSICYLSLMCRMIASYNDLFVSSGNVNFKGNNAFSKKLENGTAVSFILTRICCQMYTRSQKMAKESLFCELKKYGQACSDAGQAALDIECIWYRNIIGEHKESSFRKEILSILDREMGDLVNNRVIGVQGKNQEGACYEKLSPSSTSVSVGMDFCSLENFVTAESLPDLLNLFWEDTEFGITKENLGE
test details: PBM E-score (8-mer binding enrichment) (E-score (-0.5 to 0.5)); higher = stronger / more preferred TF binding
conditions used: protein concentration: 100 nM; construct: GST-full length
In all, about 33,000 sequences were measured (“E-score (-0.5 to 0.5)”: median about -0.016, highest 2% from about 0.3 on). This excerpt belongs to a sample that is enriched for the highest values.

[
  {
    "monomer sequence": "CCTCCGGA",
    "PBM E-score": 0.337
  },
  {
    "monomer sequence": "ACTCCGGC",
    "PBM E-score": 0.326
  },
  {
    "monomer sequence": "GCCGGAGA",
    "PBM E-score": 0.29
  },
  {
    "monomer sequence": "ACTAGTGA",
    "PBM E-score": -0.172
  },
  {
    "monomer sequence": "ACTCCGGG",
    "PBM E-score": 0.265
  },
  {
    "monomer sequence": "ACCCTAGC",
    "PBM E-score": -0.109
  },
  {
    "monomer sequence": "CCTCCGCA",
    "PBM E-score": -0.247
  },
  {
    "monomer sequence": "ATTCCGCC",
    "PBM E-score": 0.16
  },
  {
    "monomer sequence": "GCTCCGGA",
    "PBM E-score": 0.367
  },
  {
    "monomer sequence": "ATTCCCGA",
    "PBM E-score": 0.162
  },
  {
    "monomer sequence": "TCAAGCCA",
    "PBM E-score": -0.0394
  },
  {
    "monomer sequence": "ACGGAACC",
    "PBM E-score": 0.329
  },
  {
    "monomer sequence": "CCTCCGTA",
    "PBM E-score": -0.0207
  },
  {
    "monomer sequence": "ATCCCTAG",
    "PBM E-score": -0.0477
  },
  {
    "monomer sequence": "ATTCCAGC",
    "PBM E-score": -0.0455
  },
  {
    "monomer sequence": "ATTCCTGG",
    "PBM E-score": -0.138
  },
  {
    "monomer sequence": "ATCTTTTC",
    "PBM E-score": 0.0824
  },
  {
    "monomer sequence": "ATTCCCGG",
    "PBM E-score": 0.384
  },
  {
    "monomer sequence": "TGCAAACA",
    "PBM E-score": -0.168
  },
  {
    "monomer sequence": "ACCGGAGC",
    "PBM E-score": 0.247
  },
  {
    "monomer sequence": "AGGGAACC",
    "PBM E-score": -0.101
  },
  {
    "monomer sequence": "GCTTTCGA",
    "PBM E-score": -0.0696
  }
]

====

target under test: Yer184c (UniProt P39961)
Sequence: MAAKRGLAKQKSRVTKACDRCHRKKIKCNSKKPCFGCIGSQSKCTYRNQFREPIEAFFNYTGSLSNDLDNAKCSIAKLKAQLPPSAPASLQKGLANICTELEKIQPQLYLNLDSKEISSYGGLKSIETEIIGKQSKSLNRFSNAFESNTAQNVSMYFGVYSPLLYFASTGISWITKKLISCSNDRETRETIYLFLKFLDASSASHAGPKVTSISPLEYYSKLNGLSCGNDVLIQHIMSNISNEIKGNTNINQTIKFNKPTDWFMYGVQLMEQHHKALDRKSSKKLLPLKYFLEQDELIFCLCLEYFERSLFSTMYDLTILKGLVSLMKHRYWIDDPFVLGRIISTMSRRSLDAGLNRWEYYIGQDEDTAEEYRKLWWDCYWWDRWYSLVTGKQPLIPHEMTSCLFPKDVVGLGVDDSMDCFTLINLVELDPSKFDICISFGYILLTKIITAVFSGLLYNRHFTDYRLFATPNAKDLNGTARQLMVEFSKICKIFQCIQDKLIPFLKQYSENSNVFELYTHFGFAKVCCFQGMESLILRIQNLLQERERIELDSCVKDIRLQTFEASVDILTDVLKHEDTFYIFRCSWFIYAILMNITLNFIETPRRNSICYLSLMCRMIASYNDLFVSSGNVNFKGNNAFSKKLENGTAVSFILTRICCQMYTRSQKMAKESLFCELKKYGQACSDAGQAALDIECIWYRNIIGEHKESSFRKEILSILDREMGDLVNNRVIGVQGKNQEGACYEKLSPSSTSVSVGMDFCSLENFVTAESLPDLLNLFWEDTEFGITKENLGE
test details: PBM E-score (8-mer binding enrichment) (E-score (-0.5 to 0.5)); higher = stronger / more preferred TF binding
conditions used: protein concentration: 100 nM; construct: GST-full length
The full ranking holds about 33,000 sequences; the median of “E-score (-0.5 to 0.5)” is about -0.016, and the highest 2% start at about 0.3. Many of the other results were omitted from the sample, so the highest values are more common in it than they were.
Recorded PBM E-score determines the group label, using low value = under -0.06, medium value = from -0.06 up to 0.1, high value = 0.1 and over

[
  {
    "monomer sequence": "ATATGATA",
    "target under test": "Yer184c (UniProt P39961)",
    "assigned class": "high value"
  },
  {
    "monomer sequence": "CATCTCCG",
    "target under test": "Yer184c (UniProt P39961)",
    "assigned class": "high value"
  },
  {
    "monomer sequence": "ACCTAATG",
    "target under test": "Yer184c (UniProt P39961)",
    "assigned class": "low value"
  },
  {
    "monomer sequence": "ACAAGGTC",
    "target under test": "Yer184c (UniProt P39961)",
    "assigned class": "low value"
  },
  {
    "monomer sequence": "CATCTCCC",
    "target under test": "Yer184c (UniProt P39961)",
    "assigned class": "low value"
  },
  {
    "monomer sequence": "GTATGATA",
    "target under test": "Yer184c (UniProt P39961)",
    "assigned class": "high value"
  },
  {
    "monomer sequence": "ATTTGCCC",
    "target under test": "Yer184c (UniProt P39961)",
    "assigned class": "medium value"
  },
  {
    "monomer sequence": "ATCCTTGC",
    "target under test": "Yer184c (UniProt P39961)",
    "assigned class": "low value"
  },
  {
    "monomer sequence": "AATGGTAC",
    "target under test": "Yer184c (UniProt P39961)",
    "assigned class": "medium value"
  },
  {
    "monomer sequence": "AGAAAGCG",
    "target under test": "Yer184c (UniProt P39961)",
    "assigned class": "medium value"
  },
  {
    "monomer sequence": "ATTCCATA",
    "target under test": "Yer184c (UniProt P39961)",
    "assigned class": "high value"
  }
]
